Molecular target: Recombinant STAT6 protein (STAT6(W123-T658)) (Homo sapiens, UniProt P42226)
Construct: STAT6(W123-T658)
Sequence (P42226 123-658): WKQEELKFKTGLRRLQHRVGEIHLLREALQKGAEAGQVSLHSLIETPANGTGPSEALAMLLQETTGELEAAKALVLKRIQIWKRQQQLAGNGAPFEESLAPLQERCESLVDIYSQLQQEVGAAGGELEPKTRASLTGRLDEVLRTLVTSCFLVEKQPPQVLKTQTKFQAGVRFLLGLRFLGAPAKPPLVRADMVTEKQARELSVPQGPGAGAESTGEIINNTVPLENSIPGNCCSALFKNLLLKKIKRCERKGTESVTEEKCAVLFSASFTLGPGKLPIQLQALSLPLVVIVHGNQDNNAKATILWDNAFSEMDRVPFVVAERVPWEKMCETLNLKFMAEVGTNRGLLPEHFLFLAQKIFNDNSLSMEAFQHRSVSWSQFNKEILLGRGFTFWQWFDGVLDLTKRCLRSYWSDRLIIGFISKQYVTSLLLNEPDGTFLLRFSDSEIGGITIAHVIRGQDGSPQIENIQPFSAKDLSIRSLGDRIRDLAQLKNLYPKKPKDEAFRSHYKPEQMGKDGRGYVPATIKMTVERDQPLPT
Assay: STAT6 Fluorescence Polarization (FP) Assay
Format: binding
Details: STAT6(W123-T658) 250 nM, probe 5-FAM-ApYKPFQDLI-NH2 2 nM, 45-minute incubation
pIC50: −log10 of the molar value.

COMPOUND	pIC50
N#C[C@@H]1CN(C(=O)[C@@H]2CC[C@@H]3[C@H]4C[C@H]4C[C@H](NC(=O)c4cc5cc(C(F)(F)P(=O)(O)O)ccc5s4)C(=O)N32)C[C@H]1c1ccccc1 (single isomer, unassigned)	≥ 6.52
O=C(N[C@H]1C[C@@H]2C[C@@H]2C[C@H]2CC[C@@H](C(=O)N3CC(Oc4ccccn4)C3)N2C1=O)c1cc2cc(CP(=O)(O)O)ccc2s1	4.52 to 5.52
O=C(N[C@H]1C[C@@H]2C[C@@H]2C[C@H]2CC[C@@H](C(=O)NC3CN([C@H]4CCOC4)C3)N2C1=O)c1cc2cc(C(F)(F)P(=O)(O)O)ccc2s1	4.52 to 5.52
O=C(N[C@H]1C[C@@H]2C[C@@H]2C[C@H]2CC[C@@H](C(=O)N3CC(c4nocc4Br)C3)N2C1=O)c1cc2cc(C(F)P(=O)(O)O)ccc2s1 (stereo partly drawn)	4.52 to 5.52
CC(C(N)=O)c1cc(-c2ccccc2)ccc1NC(=O)[C@@H]1CC[C@@H]2C[C@H]3C[C@H]3C[C@H](NC(=O)c3cc4cc(C(F)(F)P(=O)(O)O)ccc4s3)C(=O)N21 (stereo partly drawn)	5.52 to 6.52
O=C(N[C@H]1C[C@@H]2C[C@@H]2C[C@H]2CC[C@@H](C(=O)N3CC[C@H](C(=O)N4CCOCC4)C3)N2C1=O)c1cc2cc(C(F)(F)P(=O)(O)O)ccc2s1 (single isomer, unassigned)	4.52 to 5.52
